biological target: IDO (Homo sapiens, UniProt P14902); assay: LLE_IDO_ABS_DR (IDO assay)
Sequence (P14902 whole entry): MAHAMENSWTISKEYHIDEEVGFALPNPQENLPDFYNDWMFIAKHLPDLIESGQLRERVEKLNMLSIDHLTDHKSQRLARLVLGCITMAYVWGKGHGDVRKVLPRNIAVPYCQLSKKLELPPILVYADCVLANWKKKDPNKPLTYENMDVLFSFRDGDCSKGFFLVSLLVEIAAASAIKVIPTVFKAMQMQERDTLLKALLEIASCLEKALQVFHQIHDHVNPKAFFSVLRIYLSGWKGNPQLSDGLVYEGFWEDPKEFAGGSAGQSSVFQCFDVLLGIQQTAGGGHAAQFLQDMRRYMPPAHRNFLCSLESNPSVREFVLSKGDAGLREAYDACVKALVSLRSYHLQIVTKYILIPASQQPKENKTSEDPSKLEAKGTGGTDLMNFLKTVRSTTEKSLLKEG
pIC50: −log10 of the molar value.
observed.property: pIC50

Answered cases to consult:
*Q* Recorded pIC50 for CC(C)CN(CC(C)C)c1ccc(-c2ccccc2-c2nnn[nH]2)cc1NC(=O)Nc1ccccc1N1CCCCC1 [Example 270] , please?
*A* 5.74

*Q* Recorded pIC50 for Cc1ccc(NC(=O)Nc2cc(-c3ccccc3-c3nnn[nH]3)ccc2N(CCC(F)(F)F)C2CCCCC2)cc1 [Example 195] , please?
*A* 8.32

*Q* Recorded pIC50 for Cc1ccc(NC(=O)Nc2cc(-c3ccccc3-c3nnn[nH]3)ccc2N(CC2CC2)CC2CC2)cc1 [Example 66] , please?
*A* 7.52

*Q* Recorded pIC50 for COCCN(Cc1ccc(Cl)cc1)c1ccc(-c2cc(F)ccc2C(=O)O)cc1NC(=O)Nc1ccc(C)cc1 [Example 193] , please?
*A* 7.52

*Q* Recorded pIC50 for CC(C)CN(c1ccc(-c2ccccc2C(=O)O)cc1NC(=O)Nc1ccc(C(F)(F)F)cc1)C1CCC(F)(F)CC1 [Example 513] , please?
*A* 8.00

*Q* Recorded pIC50 for Cc1ccc(NC(=O)Nc2cc(-c3ccccc3-c3nnn[nH]3)ccc2N2CCC(c3ccc(F)cc3)C2)cn1 (stereo not drawn) [Example 387] , please?
*A* 5.65

*Q* Recorded pIC50 for O=C(Nc1ccc(F)cc1F)Nc1cc(-c2ccccc2-c2nnn[nH]2)ccc1N(CCc1ccccc1)CCC(F)(F)F [Example 332] , please?
*A* 7.10

*Q* Recorded pIC50 for Cc1ccc(NC(=O)Nc2cc(-c3ccccc3C(=O)O)ccc2N(CC(C)C)C(C)C)cc1 [Example 148] , please?
*A* 7.40

[I] COc1ccc(-c2cc(NC(=O)Nc3ccc(C)cc3)c(N(C)C3CCCCC3)cc2F)cc1C(=O)O [Example 220]
[II] Cc1ccc(NC(=O)Nc2cc(-c3ccccc3C(=O)O)ccc2N(CCC(F)(F)F)Cc2ccccc2Cl)cc1 [Example 17]
[III] Cc1ccc(NC(=O)Nc2cc(-c3cc(F)ccc3C(=O)O)ccc2N(CCC(C)C(F)(F)F)CC(C)C)cc1 (stereo not drawn) [Example 203]
*Q* Put the items in order so that reported pIC50 rises from first to last. Lab note: final answer is the ordered label list.
*A* I, II, III

[1] Cc1ccc(NC(=O)Nc2cc(-c3ccccc3C(=O)O)ccc2N(CC(C)C)CC(C)CC(F)(F)F)cc1 (stereo not drawn) [Example 28]
[2] CC(C)CN(CC(C)C)c1ccc(-c2ccccc2-c2nnn[nH]2)cc1NC(=O)Nc1cccc(F)c1O [Example 275]
*Q* Sort 1 and 2 by pIC50 descending and give the first. Identify your pick by its label.
*A* 1
(1: 8.00, 2: 6.30)

* * *

target: Human IDO1 (Homo sapiens, UniProt P14902); test: IDO Kynurenine Assay with Human IDO1/HEK293 Cells; conditions: read-out: HEK human IDO-1 (IC50)
observed.property: IC50 (nM)

Answered cases to consult:
*Q* Recorded IC50 for COCCN(c1ccc(-c2ccccc2C(=O)O)cc1NC(=O)Nc1ccc(C)cc1)C1CCCCC1 , please?
*A* 50

*Q* Recorded IC50 for CC(C)CN(CC1CC(F)(F)C1)c1ccc(-c2ccccc2-c2nnn[nH]2)cc1NC(=O)Nc1cc(C(C)C)no1 , please?
*A* 1890

*Q* Recorded IC50 for CC(C)CN(c1cc(F)c(-c2cc(F)ccc2C(=O)O)cc1NC(=O)Nc1cc(C(F)(F)F)no1)C1CCCCC1 , please?
*A* 2.07

*Q* Recorded IC50 for Cc1ccc(NC(=O)Nc2cc(-c3ccccc3C(=O)O)ccc2N(CC(C)C)C2CCC(C(F)(F)F)CC2)cc1 (stereo not drawn) , please?
*A* 40

*Q* Recorded IC50 for CCC(CC)N(CC(C)C)c1ccc(-c2ccccc2-c2nnn[nH]2)cc1NC(=O)Nc1ccccc1F , please?
*A* 1.41

*Q* Recorded IC50 for Cc1ccc(NC(=O)Nc2cc(-c3ccccc3C(=O)O)cc(F)c2N(CC(C)C)C2CCCCC2)cc1 , please?
*A* 3.13

*Q* Recorded IC50 for CC(C)CN(c1c(F)cc(-c2ccccc2C(=O)O)cc1NC(=O)Nc1ccccc1F)C1CCCCC1 , please?
*A* 1.82

*Q* Recorded IC50 for Cc1cccc(-c2ccc(N(CC(C)C)CC(C)C)c(NC(=O)Nc3ccc(OC(F)(F)F)cc3)c2)c1C(=O)O , please?
*A* 4

*Q* Recorded IC50 for CC(C)CN(c1cc(F)c(-c2cc(F)ccc2C(=O)O)cc1NC(=O)Nc1cncnc1)C1CCCCC1 , please?
*A* 30

*Q* Recorded IC50 for CC(C)CN(c1c(F)cc(-c2cc(F)ccc2C(=O)O)cc1NC(=O)Nc1ccc(Cl)cc1F)C1CCCCC1 , please?
*A* 3.7

[P] COCCN(c1ccc(-c2cc(F)ccc2C(=O)O)cc1NC(=O)Nc1ccc(Cl)cc1F)C1CCCCC1
[Q] CCOc1ccc(NC(=O)Nc2cc(-c3ccccc3-c3nnn[nH]3)ccc2N(C2CC2)C2CC2)cc1
*Q* Sort P and Q by IC50 descending and give the first. Identify your pick by its label.
*A* Q
(Q: 1740 nM, P: 1.74 nM)

[a] Cc1ccc(NC(=O)Nc2cc(-c3cc(F)ccc3C(=O)O)c(F)cc2N(CC(C)C)CC(C)C)cc1
[b] Cc1cccc(NC(=O)Nc2cc(-c3cc(F)ccc3C(=O)O)c(F)cc2N(CC(C)C)C2CCCCC2)c1
*Q* Kindly identify the item with the lower IC50 figure among these two: a and b Identify your pick by its label.
*A* a

Measured values drawn from patent US9758492B2 for this set.
